Biological target: HIV-1 BaL.01 envelope on BaL.01 pseudotyped virus (HIV-1 (BaL.01))
Assay: cell-based or functional assay
Starred links: 1 amine or outer side, 2 acyl side, 3 side chain; linkers in the order of their positions; H or OH if unused. Positions of bridges follow the written chain, without caps; N, C: chain ends. Non-standard residues stand in square brackets, D forms with d. No end group written: not given here. X2 = (2S,4S)‑4‑(4-ferrocenyl-1H-1,2,3-triazol-1-yl)pyrrolidine‑2‑carboxylic acid, O=C([C@@H]1C[C@H](n2cc(-[c-]3cccc3)nn2)CN1[*:1])[*:2].[Fe+2].c1cc[cH-]c1; X3 = (2S,4S)‑4‑(4-ferrocenyl-1H-1,2,3-triazol-1-yl)proline, O=C([C@@H]1C[C@H](n2cc(-[c-]3cccc3)nn2)CN1[*:1])[*:2].[Fe+2].c1cc[cH-]c1; Pro(cis-4-Trz(4-CH2CH2Ph)) = O=C(O)[C@@H]1C[C@H](n2cc(CCc3ccccc3)nn2)CN1; Bta = N[C@@H](Cc1csc2ccccc12)C(=O)O
reported.metric: IC50, HIV-1 infection inhibition, Bal.01 pseudotyped virus (µM)

>  <binder>
DNI[Pro(cis-4-Trz(4-CH2CH2Ph))]WK-NH2 (lactam 1-6, Cyclic hexapeptide triazole; also called minimized hexapeptide AAR029; macrocycle AAR029) [AAR029]

>  <endpoint.unit>
µM

>  <numeric.value>
2.02

$$$$
>  <binder>
DNI[X2]WK-NH2 (lactam 1-6, Ferrocenyl analogue of AAR029) [AAR029b]

>  <endpoint.unit>
µM

>  <numeric.value>
0.21

$$$$
>  <binder>
IENI[X3]WK-NH2 (lactam 2-7, Ferrocenyl analogue of AAR024) [AAR024b]

>  <endpoint.unit>
µM

>  <numeric.value>
0.65

$$$$
>  <binder>
DNI[X2][Bta]K-NH2 (lactam 1-6) [AAR029E]

>  <endpoint.unit>
µM

>  <numeric.value>
0.026

$$$$
